- TARGET_ENTITY: HLA-A*02:01 (Homo sapiens, UniProt P04439, D140Y/D185E/D98H/E176V/E277Q/G131W/G231S/I119V/I121R/I166T/I218V/L300P/L318F/N151K/N90K/P208A/P217A/Q86G/Q94H/R138H/R169H/T345S)
- ASSAY_PROTOCOL: MHC binding assay (UV-ligand exchange, β2m ELISA, peptide exchange yield)
- RUN_CONDITIONS: MHC class I binding score; binding to HLA-A*02:01 ranged by peptide exchange yield (UV-ligand exchange, β2m ELISA)
RECORDED_ENDPOINT: Peptide exchange

INSERT INTO assay_data (substance, recorded_endpoint, measured) VALUES
  ('488 (FLAEDPKVTL; listed as Homo sapiens) [compound 488]', 'Peptide exchange', '″+++″ (≧50% = +++)'),
  ('469 (YLASDEITTV; listed as Homo sapiens) [compound 469]', 'Peptide exchange', '″+++″ (≧50% = +++)'),
  ('189 (ALQRKLPYV; listed as Homo sapiens) [compound 189]', 'Peptide exchange', '″+++″ (≧50% = +++)'),
  ('82 (FLSSVTYNL; listed as Homo sapiens) [compound 82]', 'Peptide exchange', '″+++″ (≧50% = +++)'),
  ('409 (LLDAMNYHL; listed as Homo sapiens) [compound 409]', 'Peptide exchange', '″++″ (≧20% = ++)'),
  ('111 (YVWGFYPAEV; listed as Homo sapiens) [compound 111]', 'Peptide exchange', '″+++″ (≧50% = +++)'),
  ('580 (LLMENAERV; listed as Homo sapiens) [compound 580]', 'Peptide exchange', '″++″ (≧20% = ++)'),
  ('142 (FLFATPVFI; listed as Homo sapiens) [compound 142]', 'Peptide exchange', '″+++″ (≧50% = +++)');

* * *

- TARGET_ENTITY: HLA-A*02:01 (Homo sapiens, UniProt P04439, D140Y/D185E/D98H/E176V/E277Q/G131W/G231S/I119V/I121R/I166T/I218V/L300P/L318F/N151K/N90K/P208A/P217A/Q86G/Q94H/R138H/R169H/T345S)
- ASSAY_PROTOCOL: MHC binding assay (UV-ligand exchange, β2m ELISA, peptide exchange yield)
- RUN_CONDITIONS: MHC class I binding score; binding to HLA-A*02:01 ranged by peptide exchange yield (UV-ligand exchange, β2m ELISA)
RECORDED_ENDPOINT: Peptide exchange

INSERT INTO assay_data (substance, measured) VALUES
  ('348 (ILLDVKTRL; listed as Homo sapiens) [compound 348]', '″++++″ (≧75% = ++++)'),
  ('76 (ILIDSIYKV; listed as Homo sapiens) [compound 76]', '″+++″ (≧50% = +++)'),
  ('550 (FLYDEIEAEVNL; listed as Homo sapiens) [compound 550]', '″+++″ (≧50% = +++)'),
  ('462 (KLAKQPETV; listed as Homo sapiens) [compound 462]', '″+++″ (≧50% = +++)'),
  ('606 (ALWETEVYI; listed as Homo sapiens) [compound 606]', '″+++″ (≧50% = +++)'),
  ('262 (LLWGDLIWL; listed as Homo sapiens) [compound 262]', '″+++″ (≧50% = +++)'),
  ('273 (NLFQSVREV; listed as Homo sapiens) [compound 273]', '″++″ (≧20% = ++)'),
  ('306 (ALVNVQIPL; listed as Homo sapiens) [compound 306]', '″+++″ (≧50% = +++)'),
  ('504 (GLSDGNPSL; listed as Homo sapiens) [compound 504]', '″++″ (≧20% = ++)'),
  ('230 (ILVDWLVEV; listed as Homo sapiens) [compound 230]', '″+″ (≧10% = +)'),
  ('402 (VLFSGALLGL; listed as Homo sapiens) [compound 402]', '″++″ (≧20% = ++)'),
  ('136 (YLADPSNLFVV; listed as Homo sapiens) [compound 136]', '″+++″ (≧50% = +++)'),
  ('4 (GIMEHITKI; listed as Homo sapiens) [compound 4]', '″++++″ (≧75% = ++++)'),
  ('326 (FLPEALDFV; listed as Homo sapiens) [compound 326]', '″+++″ (≧50% = +++)'),
  ('196 (YLYSVEIKL; listed as Homo sapiens) [compound 196]', '″++++″ (≧75% = ++++)'),
  ('66 (FLDENIGGVAV; listed as Homo sapiens) [compound 66]', '″+++″ (≧50% = +++)'),
  ('546 (VMIAGKVAVV; listed as Homo sapiens) [compound 546]', '″+++″ (≧50% = +++)'),
  ('116 (YHIDEEVGF; listed as Homo sapiens) [compound 116]', '″+″ (≧10% = +)'),
  ('87 (ALPEAPAPLLPHIT; listed as Homo sapiens) [compound 87]', '″++″ (≧20% = ++)');
